Origin of values: PubChem BioAssay (NCATS)

# System: Dd2
# test-method-notes: qHTS profiling for inhibitors of Plasmodium falciparum proliferation (AID 504749); further: nearly all actives have a fitted effect of over 60% in size
# test-conditions: P. falciparum in erythrocytes, SYBR Green DNA, 72 h; series mostly up to 28.7 µM
Records with an inconclusive call do not appear. The source made the active and inactive calls. The call rests on the fitted dose curve; in most records, active means well fitted inhibition curve with a large enough effect; inconclusive means small, poorly fitted or top-dose-only effect; inactive means flat fitted curve, though single readings scatter. Bridge positions count the residues as written; N and C are the ends. Square brackets hold non-standard residues; d marks the D form. Peptide text beside a SMILES is read from it. * marks the point of attachment. ξ: configuration not given here. ξDab(CH2SO3H) = NC(CCNCS(=O)(=O)O)C(=O)O; Heptanoyl(6-Me) = CC(C)CCCCC(=O)*; Orn = NCCC[CH](N)C(=O)O; Dab = NCC[CH](N)C(=O)O
Possible outcomes: 1 = active, 0 = inactive

{"compound": "CC(C)CC1NC(=O)C(CCCN)NC(=O)C(C(C)C)NC(=O)C2CCCN2C(=O)C(Cc2ccccc2)NC(=O)C(CC(C)C)NC(=O)C(CCCN)NC(=O)C(C(C)C)NC(=O)C2CCCN2C(=O)C(Cc2ccccc2)NC1=O (configuration not stated) (cyclo(FPV[Orn]LFPV[Orn]L); configuration not given here)", "class": 1}
{"compound": "CC(C)C[C@H](NC(=O)[C@@H](Cc1c[nH]c2ccccc12)NC(=O)[C@@H](Cc1ccc(O)cc1)NC(=O)[C@@H](CO)NC(=O)[C@@H](Cc1c[nH]c2ccccc12)NC(=O)C(Cc1cnc[nH]1)NC(=O)C1CCC(=O)N1)C(=O)N[C@@H](CCCN=C(N)N)C(=O)N1CCC[C@@H]1C(=O)NCC(N)=O (some centres not stated)", "class": 0}
{"compound": "O=C(OCC1OC(OC(=O)c2cc(O)c(O)c(OC(=O)c3cc(O)c(O)c(O)c3)c2)[C@@H](OC(=O)c2cc(O)c(O)c(OC(=O)c3cc(O)c(O)c(O)c3)c2)C(OC(=O)c2cc(O)c(O)c(OC(=O)c3cc(O)c(O)c(O)c3)c2)C1OC(=O)c1cc(O)c(O)c(OC(=O)c2cc(O)c(O)c(O)c2)c1)c1cc(O)c(O)c(OC(=O)c2cc(O)c(O)c(O)c2)c1 (some centres not stated)", "class": 1}
{"compound": "CC1(C)C(/C=C/C=C/C=C/C=C2\\N(CCCCS(=O)(=O)O)c3ccc4ccccc4c3C2(C)C)=[N+](CCCCS(=O)(=O)[O-])c2ccc3ccccc3c21", "class": 0}
{"compound": "CCC(C)C1NC(=O)C(Cc2ccc(O)cc2)NC(=O)C(N)CSSCC(C(=O)N2CCCC2C(=O)NC(CC(C)C)C(=O)NCC(N)=O)NC(=O)C(CC(N)=O)NC(=O)C(CCC(N)=O)NC1=O (configuration not stated)", "class": 0}
{"compound": "CCC(C)C1NC(=O)C(CCNCS(=O)(=O)O)NC(=O)C(NC(=O)C(CCNCS(=O)(=O)O)NC(=O)C(NC(=O)C(CCNCS(=O)(=O)O)NC(=O)CCCCC(C)C)C(C)O)CCNC(=O)C(C(C)O)NC(=O)C(CCNCS(=O)(=O)O)NC(=O)C(CCNCS(=O)(=O)O)NC(=O)C(C(C)CC)NC1=O (configuration not stated) ({Heptanoyl(6-Me)}-[ξDab(CH2SO3H)]T[ξDab(CH2SO3H)][Dab][ξDab(CH2SO3H)]II[ξDab(CH2SO3H)][ξDab(CH2SO3H)]T; lactam 4-C; configuration not given here)", "class": 0}
{"compound": "CCOC(=O)C(CS)NCCN[C@@H](CS)C(=O)OCC (some centres not stated)", "class": 0}

* * *

# test-method-notes: qHTS profiling of the MIPE4 collection as inhibitors of Plasmodium falciparum (DD2) proliferation (AID 743345)
# test-conditions: P. falciparum Dd2 in erythrocytes, SYBR Green DNA, 72 h; at 28.5 µM (top of the series)
Starred links: 1 amine or outer side, 2 acyl side, 3 side chain; linkers in the order of their positions; H or OH if unused. Positions of bridges follow the written chain, without caps; N, C: chain ends. Non-standard residues stand in square brackets, D forms with d. Residues, ends and D or L forms follow the SMILES beside them. *: point of attachment. X2 = NC1=C[C@@H](O)C[C@H]([C@H](N[*:1])C(=O)[*:2])N1; ΔAla(3-NHCONH2) = NC(=O)NC=C(N)C(=O)O; β3hOrn = NCCC[C@H](N)CC(=O)*; Dap = NC[C@H](N)C(=O)O
Simple rule here: parasite growth remaining, % of DMSO control (lower = more inhibition) less than 9% is yes (1), otherwise no (0).

{"compound": "CCCC[C@@H]1C[C@@H](C(=O)NC([C@H](C)Cl)[C@H]2O[C@H](S)[C@H](O)[C@@H](O)[C@@H]2O)N(C)C1 (some centres not stated)", "class": "no (0)"}
{"compound": "COc1cc(C)c2c(Oc3cccc(C(F)(F)F)c3)c(OC)cc(NCCCC(C)N)c2n1 (configuration not stated)", "class": "yes (1)"}
{"compound": "CN(C)CCC=C1c2ccccc2COc2ccccc21", "class": "no (0)"}
{"compound": "COc1ccc(S(=O)(=O)N(CCO)c2ccccc2CN(C)CC=Cc2ccc(Cl)cc2)cc1", "class": "no (0)"}
{"compound": "NCCC[C@H](N)CC(=O)N[C@H]1CNC(=O)[C@H]([C@H]2C[C@H](O)C=C(N)N2)NC(=O)C(=CNC(N)=O)NC(=O)[C@H](CO)NC(=O)[C@H](CO)NC1=O (β3hOrn-[Dap]SS[ΔAla(3-NHCONH2)][X2]; lactam 1-C)", "class": "no (0)"}
{"compound": "C[C@H]1C[C@H]2C3CCC4=CC(=O)C=C[C@@]4(C)[C@@]3(Cl)[C@@H](O)CC2(C)[C@@]1(OC(=O)c1ccco1)C(=O)CCl (some centres not stated)", "class": "yes (1)"}
{"compound": "CN(C(=O)OC(C)(C)C)[C@@H](Cc1ccc(O[S+](=O)([O-])c2cccc3cnccc23)cc1)C(=O)N1CCN(C(=O)OCc2ccccc2)CC1", "class": "yes (1)"}
{"compound": "CO[C@H]1C=CO[C@@]2(C)Oc3c(C)c(O)c4c(O)c(c(C=NN5CCN(C)CC5)c(O)c4c3C2=O)NC(=O)C(C)=CC=CC(C)[C@H](O)[C@@H](C)[C@@H](O)[C@@H](C)[C@@H](OC(C)=O)[C@H]1C (some centres not stated)", "class": "yes (1)"}
{"compound": "CC(=O)NCC1CN(c2ccc(N3CCOCC3)c(F)c2)C(=O)O1 (configuration not stated)", "class": "no (0)"}
{"compound": "C[C@H]1CCN(C(=O)CC#N)C[C@H]1N(C)c1ncnc2[nH]ccc12", "class": "no (0)"}
{"compound": "C[C@]1(COc2ccc(N3CCC(Oc4ccc(OC(F)(F)F)cc4)CC3)cc2)Cn2cc([N+](=O)[O-])nc2O1", "class": "no (0)"}

* * *

# Test system: C2A
# test-method-notes: qHTS profiling for inhibitors of Plasmodium falciparum proliferation (AID 504749); further: nearly all actives have a fitted effect of over 60% in size
# test-conditions: P. falciparum in erythrocytes, SYBR Green DNA, 72 h; series mostly up to 28.7 µM
Results filed as inconclusive are left out. Activity calls are given as the source filed them. The call rests on the fitted dose curve; in most records, active means well fitted inhibition curve with a large enough effect; inconclusive means small, poorly fitted or top-dose-only effect; inactive means flat fitted curve, though single readings scatter. Bridge positions count the residues as written; N and C are the ends. Square brackets hold non-standard residues; d marks the D form. Peptide text beside a SMILES is read from it. * marks the point of attachment. ξ: configuration not given here. ξDab(CH2SO3H) = NC(CCNCS(=O)(=O)O)C(=O)O; Heptanoyl(6-Me) = CC(C)CCCCC(=O)*; Dab = NCC[CH](N)C(=O)O
experimental-endpoint: outcome

{"compound": "CCC(C)C1NC(=O)C(Cc2ccc(O)cc2)NC(=O)C(N)CSSCC(C(=O)N2CCCC2C(=O)NC(CC(C)C)C(=O)NCC(N)=O)NC(=O)C(CC(N)=O)NC(=O)C(CCC(N)=O)NC1=O (configuration not stated)", "test-result": "inactive"}
{"compound": "CCC(C)C1NC(=O)C(CCNCS(=O)(=O)O)NC(=O)C(NC(=O)C(CCNCS(=O)(=O)O)NC(=O)C(NC(=O)C(CCNCS(=O)(=O)O)NC(=O)CCCCC(C)C)C(C)O)CCNC(=O)C(C(C)O)NC(=O)C(CCNCS(=O)(=O)O)NC(=O)C(CCNCS(=O)(=O)O)NC(=O)C(C(C)CC)NC1=O (configuration not stated) ({Heptanoyl(6-Me)}-[ξDab(CH2SO3H)]T[ξDab(CH2SO3H)][Dab][ξDab(CH2SO3H)]II[ξDab(CH2SO3H)][ξDab(CH2SO3H)]T; lactam 4-C; configuration not given here)", "test-result": "inactive"}

* * *

# target-system: Cytochrome P450 2C9 (Homo sapiens)
# test-method-notes: qHTS Assay for Inhibitors and Substrates of Cytochrome P450 2C9 (AID 883); further: nearly all actives have a fitted effect of over 60% in size; further: potency means the concentration at half of the fitted maximal effect
# test-conditions: recombinant CYP2C9, luciferin-H luminescence, 60 min; series mostly up to 11.4 µM
Results filed as inconclusive are left out. The source made the active and inactive calls. Calls come from the whole dose curve; as a rule, active = well fitted inhibition curve with a large enough effect; inconclusive = small, poorly fitted or top-dose-only effect; inactive = no such curve, though single readings can be large or run the other way.
experimental-endpoint: Potency

{"compound": "CCC1OCCC=CC1C (stereo not drawn)", "test-result": "inactive"}
{"compound": "COC(C1CCCCC1)C(C)C(OCc1cccc(Br)c1)C(C)CO (stereo not drawn)", "test-result": "inactive"}
{"compound": "COC(=O)[C@@H]1CC[C@H](C)[C@@H](c2ccc(C)cc2)N1C(=O)c1ccc(/C=N\\OC[C@@H](O)[C@H]2O[C@H]3OC(C)(C)O[C@H]3[C@@H]2O)cc1", "test-result": "2.51 µM (active)"}
{"compound": "O=C1C=C[C@@H](O)[C@@H]2[C@H]3C(=O)N(c4ccc(F)cc4F)C(=O)[C@@H]3CC[C@@H]12", "test-result": "inactive"}
{"compound": "CC(C)CO/N=C1/[C@H]2O[C@@H]2[C@@H](O)[C@H]2[C@H]1CCn1c(=O)n(-c3ccccc3)c(=O)n12", "test-result": "inactive"}
{"compound": "CCOC(=O)[C@]1(C(NC(=O)OC)c2cccc(F)c2)CCCC1=O (stereo partly drawn)", "test-result": "inactive"}
{"compound": "CC[C@@H](c1ccccc1)n1c(=O)n2n(c1=O)[C@H]1[C@H](O)[C@H]3O[C@@H]3/C(=N/OC/C=C(\\C)CCC=C(C)C)[C@@H]1CC2", "test-result": "inactive"}
{"compound": "CCCCC#CC1C=CC(Oc2ccc(OC)cc2)C(CO)O1 (stereo not drawn)", "test-result": "inactive"}
{"compound": "COc1ccc(/C=C/N(CCc2ccc(OC)c(OC)c2)C(C)=O)cc1", "test-result": "3.16 µM (active)"}
{"compound": "C(#CC1C=CC2OC(c3ccccc3)OCC2O1)c1ccccc1 (stereo not drawn)", "test-result": "inactive"}
{"compound": "COC(=O)C1=C(C)N(Cc2ccccc2)[C@]23O[C@](C(=O)OC)(C(=O)N2C1c1ccccc1)C(c1ccccc1)C3C(=O)c1ccccc1 (stereo partly drawn)", "test-result": "inactive"}
{"compound": "C/C(CCC(=O)OC[C@@H]1O[C@H](C#Cc2ccccc2)C=C[C@@H]1Oc1ccc(C)cc1)=N/O[C@@H](C)c1cn([C@H](CO)Cc2ccccc2)nn1", "test-result": "3.16 µM (active)"}
{"compound": "COC1C(O)COC1/C=C/c1ccccc1 (stereo not drawn)", "test-result": "inactive"}
{"compound": "Cc1ccc(S(=O)(=O)N[C@@H](CCc2ccccc2)CC(=O)C(C)(C)C)cc1", "test-result": "3.98 µM (active)"}
{"compound": "OCC1OC(/C=C\\c2ccccc2)C=CC1Oc1ccc2c(c1)OCO2 (stereo not drawn)", "test-result": "inactive"}
{"compound": "COc1ccc(OC[C@@H](CO)OC)cc1", "test-result": "inactive"}
{"compound": "COc1ccc(O[C@H]2C=C[C@@H](c3ccccc3)O[C@H]2COC(=O)CC/C(C)=N\\OC[C@@H](O)[C@H]2O[C@H]3OC(C)(C)O[C@H]3[C@@H]2O)cc1", "test-result": "1.58 µM (active)"}
{"compound": "COc1ccc(OC2C=CC(c3ccccc3)OC2CO)c(C(C)=O)c1 (stereo not drawn)", "test-result": "inactive"}
